Collected Kd values appear next to each entry.
# study.system: T1, CXCL12WT (wild type CXCL12) (Homo sapiens (Human), UniProt P48061 22-89)
# T1 construct: Recombinant, expressed and purified as previously described; [U-15N]-labelled in the NMR titrations; In monomer-dimer equilibrium; also called stromal cell-derived factor-1; SDF-1
# T1 sequence (P48061 22-89 limits assumed): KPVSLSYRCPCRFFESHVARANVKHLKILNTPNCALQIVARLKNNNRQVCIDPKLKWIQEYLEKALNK
# assay.info: NMR 1H-15N HSQC titration of peptide into 15N-labelled chemokine, chemical shift perturbations fitted to a quadratic binding equation, 298 K
Non-standard residues stand in square brackets, D forms with d. sY = N[C@@H](Cc1ccc(OS(=O)(=O)O)cc1)C(=O)O
recorded.endpoint: Kd (µM)

>>> readout_value("Ac-ISIYTSD-NH2 (Synthetic CXCR4 heptapeptide, residues 4-10; also called CXCR4 Ile4-Asp10 heptapeptide) [4ISIYTSD10 (unsulfated Tyr7 peptide)]")
1900
>>> readout_value("Ac-ISI[sY]TSD-NH2 (SMILES CC[C@H](C)[C@H](NC(C)=O)C(=O)N[C@@H](CO)C(=O)N[C@H](C(=O)N[C@@H](Cc1ccc(OS(=O)(=O)O)cc1)C(=O)N[C@H](C(=O)N[C@@H](CO)C(=O)N[C@@H](CC(=O)O)C(N)=O)[C@@H](C)O)[C@@H](C)CC, Synthetic CXCR4 heptapeptide, residues 4-10) [4ISIsYTSD10 (sTyr7 sulfopeptide)]")
4300
>>> readout_value("Ac-SGDYDSM-NH2 (Synthetic CXCR4 heptapeptide, residues 18-24; also called unsulfated Tyr21 peptide) [18SGDYDSM24 (Tyr21 peptide)]")
2700
>>> readout_value("Ac-SGD[sY]DSM-NH2 (SMILES CSCC[C@H](NC(=O)[C@H](CO)NC(=O)[C@H](CC(=O)O)NC(=O)[C@H](Cc1ccc(OS(=O)(=O)O)cc1)NC(=O)[C@H](CC(=O)O)NC(=O)CNC(=O)[C@H](CO)NC(C)=O)C(N)=O, Synthetic CXCR4 heptapeptide, residues 18-24; also called sulfated Tyr21 peptide) [18SGDsYDSM24 (sTyr21 sulfopeptide)]")
1800
